- Test system: BDF1 mice, P388 leukemia ip, median survival T/C
- assayDetails: NCI In Vivo Anticancer Drug Screen. Data for tumor model P388 Leukemia (intraperitoneal) in B6D2F1 (BDF1) mice
- runParameters: endpoint: median survival time; dose: 200.0 mg/kg/injection; schedule: Q04DX003 (ip); vehicle: saline sonified; higher = longer survival
Inconclusive results and toxic doses are left out.
Overview of reported T/C across a group of molecules:

Study these solved cases before continuing.
>>> df
                                   molecule  outcomemeasure  recordedmeasurement
0  CCc1ccc(OS(=O)(=O)c2ccccc2[N+](=O)[O-])cc1             T/C     100 % of control
1  CCNc1c([N+](=O)[O-])cc(S(=O)(=O)O)cc1[N+](=O)[O-]             T/C     104 % of control
2  O=C(COc1ccc(Cl)cc1)C1CSc2ccc3ccccc3c21 (configuration not stated)             T/C      90 % of control
3  CCC1=C(C)C(=O)C2CCCCC2C1=O (configuration not stated)             T/C     100 % of control
4  CC1CC(C)(C)N=C(CCC[N+](=O)[O-])O1 (configuration not stated)             T/C     105 % of control
5  O=C1C(Cl)=C(Cl)C(=O)C2=C1C1c3ccccc3C2c2ccccc21             T/C     109 % of control

Read the next record carefully.
Q: Recorded T/C for CSc1ccc(NC(=O)C(O)C(O)C(O)C(O)CO)cc1 (configuration not stated) , please?
Ans: 104 % of control

---

- System: BDF1 mice, P388 leukemia ip, median survival T/C
- assayDetails: NCI In Vivo Anticancer Drug Screen. Data for tumor model P388 Leukemia (intraperitoneal) in B6D2F1 (BDF1) mice
- runParameters: endpoint: median survival time; dose: 100.0 mg/kg/injection; schedule: Q01DX009 (ip); vehicle: water; higher = longer survival
Toxic doses and inconclusive results are not listed.
Overview of reported T/C across a group of compounds:

Study these solved cases before continuing.
>>> df
                                   compound  outcomemeasure  recordedmeasurement
0  COc1cccc2c1C(=O)c1c(O)c3c(c(O)c1C2=O)C[C@@](O)(C(C)=O)C[C@@H]3OC1CC(NC(C)=O)C(O)C(C)O1 (stereo partly specified)             T/C     114 % of control
1                             CCOC(=O)N=C=O             T/C     114 % of control

Q: Recorded T/C for COC(=O)CCC1(c2ccccc2)CCCC1=O (stereo unspecified) , please?
Ans: 94 % of control

Q: Recorded T/C for COc1ccc(/C=C/C(=O)c2ccccc2)cc1OC , please?
Ans: 115 % of control

Q: Recorded T/C for COC1(c2ccc(Br)cc2)OC1(C)C (stereo unspecified) , please?
Ans: 100 % of control

Q: Recorded T/C for CC(=O)Nc1ccc(SSSc2ccc(NC(C)=O)cc2)cc1 , please?
Ans: 105 % of control

---

- Tested on: BDF1 mice, P388 leukemia ip, median survival T/C
- assayDetails: NCI In Vivo Anticancer Drug Screen. Data for tumor model P388 Leukemia (intraperitoneal) in B6D2F1 (BDF1) mice
- runParameters: endpoint: median survival time; dose: 3.13 mg/kg/injection; schedule: Q01DX009 (ip); vehicle: saline; higher = longer survival
Toxic doses and inconclusive results are not listed.
Overview of reported T/C across a group of compounds:

Study these solved cases before continuing.
>>> df
                                   compound  outcomemeasure  recordedmeasurement
0                           CCCCOB(CI)OCCCC             T/C     109 % of control
1  COC1OC(COC(C)=O)C(OC(C)=O)C(OC(C)=O)[CH]1[Hg][O]C(C)=O (centres undefined)             T/C      95 % of control
2   CCN(CC)CCCCCCNc1cc(OC)c(OC)c2c(C)ccnc12             T/C     102 % of control

Q: Recorded T/C for CCCC1CCC(=C2C(=O)CCC2=O)O1 (centres undefined) , please?
Ans: 119 % of control

---

- Tested on: BDF1 mice, P388 leukemia ip, median survival T/C
- assayDetails: NCI In Vivo Anticancer Drug Screen. Data for tumor model P388 Leukemia (intraperitoneal) in B6D2F1 (BDF1) mice
- runParameters: endpoint: median survival time; dose: 100.0 mg/kg/injection; schedule: Q01DX009 (ip); vehicle: saline with Tween-80
- Protocol: The antitumor activity of compounds was measured in mice bearing transplantable tumors. Survival or tumor size were measured and the results are expressed as the measurement made in the treated group (T) divided by the measurement made in the vehicle treated control group (C). The tumor model used in this assay is P388 Leukemia (intraperitoneal) in B6D2F1 (BDF1) mice
Toxic doses and inconclusive results are not listed. Rule for the calls: active = survival T/C of 150% or more; inactive = T/C below 125% in these data.
The categories you may choose from are active, inactive

Use the examples below as a reference point.
                                   compound                        experimentalsystem  qualitativelabel
0  CS(=O)CC(O)(c1cccs1)C1CC1 (stereo unspecified)  BDF1 mice, P388 leukemia ip, median survival T/C          inactive
1  CC#CCOCC(CCl)OC(=O)Nc1ccccc1 (stereo unspecified)  BDF1 mice, P388 leukemia ip, median survival T/C          inactive
2              CCS(=O)(=O)OCCCCOS(=O)(=O)CC  BDF1 mice, P388 leukemia ip, median survival T/C          inactive
3         c1ccc(-c2nnc3oc(-c4ccco4)nn23)cc1  BDF1 mice, P388 leukemia ip, median survival T/C          inactive
4  O=C(O)CC(SC(CC(=O)O)C(F)(F)C(F)(F)C(F)(F)F)C(F)(F)C(F)(F)C(F)(F)F (stereo unspecified)  BDF1 mice, P388 leukemia ip, median survival T/C          inactive

Q: What did the test return for O=c1onc(-c2ccc(Cl)cc2)c2ccccc12 ?
Ans: inactive

Q: What did the test return for Fc1ccc(NC2=NCCN=C(Nc3ccc(F)cc3)SS2)cc1 ?
Ans: inactive

Q: What did the test return for CC(=O)Nc1ccc([I+]c2ccc([N+](=O)[O-])cc2)cc1 ?
Ans: inactive

Q: What did the test return for CN(Cc1cnc2nc(N)nc(N)c2n1)c1c(Cl)cc(C(=O)NC(CCC(=O)O)C(=O)O)cc1Br (stereo unspecified) ?
Ans: active

Q: What did the test return for COc1cc2c(cc1O)CCCCC2=O ?
Ans: inactive

---

- System: BDF1 mice, P388 leukemia ip, median survival T/C
- assayDetails: NCI In Vivo Anticancer Drug Screen. Data for tumor model P388 Leukemia (intraperitoneal) in B6D2F1 (BDF1) mice
- runParameters: endpoint: median survival time; dose: 200.0 mg/kg/injection; schedule: Q04DX003 (ip); vehicle: saline with Tween-80
Inconclusive results and toxic doses are left out. How the source made its calls: active means survival T/C of 150% or more; inactive means T/C below 125% in these data. Residues, ends and D or L forms follow the SMILES beside them. *: point of attachment. Cbz = O=C(OCc1ccccc1)*; NHNH2 = NN*
The categories you may choose from are 1.0 for active, 0.0 for inactive

Use the examples below as a reference point.
In [3]: df
Out[3]:
                                   compound  qualitativelabel
0                 O=C(O)c1ccc(-c2ccccc2)cc1               0.0
1                     Nc1c2ccccc2cc2ccccc12               0.0
2  CCN(CC)P1(=S)OCC(C)O1 (centres undefined)               0.0
3         COc1cc(C)c(NC(=O)Oc2ccccc2)c(C)c1               0.0

Q: What did the test return for Cc1c(Cl)cccc1NC(=O)Nc1cccc2ccccc12 ?
Ans: 0.0

Q: What did the test return for C[C@]12CC[C@@H](O)C[C@H]1CC[C@@H]1[C@@H]2CC[C@]2(C)C(=O)CC[C@@H]12 ?
Ans: 0.0

Q: What did the test return for Nc1nc(N)c2cc(CNc3ccc(C(=O)NC(CC(=O)O)CC(=O)O)cc3)cnc2n1 ?
Ans: 0.0

Q: What did the test return for C=CC(=O)NCNC(=O)CCBr ?
Ans: 1.0

Q: What did the test return for CC(C)C(NC(=O)C1CCCN1C(=O)OCc1ccccc1)C(=O)NN (stereo not drawn) (Cbz-Pro-Val-NHNH2; configuration not given here) ?
Ans: 0.0

---

- System: BDF1 mice, P388 leukemia ip, median survival T/C
- assayDetails: NCI In Vivo Anticancer Drug Screen. Data for tumor model P388 Leukemia (intraperitoneal) in B6D2F1 (BDF1) mice
- runParameters: endpoint: median survival time; dose: 25.0 mg/kg/injection; schedule: Q01DX009 (ip); vehicle: saline with Tween-80
- Method: The antitumor activity of compounds was measured in mice bearing transplantable tumors. Survival or tumor size were measured and the results are expressed as the measurement made in the treated group (T) divided by the measurement made in the vehicle treated control group (C). The tumor model used in this assay is P388 Leukemia (intraperitoneal) in B6D2F1 (BDF1) mice
Toxic doses and inconclusive results are not listed. How the source made its calls: active means survival T/C of 150% or more; inactive means T/C below 125% in these data.
The categories you may choose from are T = active, F = inactive

>>> df
                                   molecule  qualitativelabel
0  Nc1nc2ncc(CNc3ccc(C(=O)NC(CCC(=O)O)C(=O)O)cc3)nc2c(=O)[nH]1 (centres undefined)                 F
1                      CC(C)=CCC/C(C)=C\CCl                 F
2         Cc1ccccc1P(=O)(c1ccccc1)c1ccccc1C                 F
3      Nc1ccc(S(=O)(=O)N/N=C/c2ccccc2Cl)cc1                 F
4  C=C(CN(CC(=C)C(=O)c1ccccc1)C(C)(C)C)C(=O)c1ccccc1                 F

Q: What did the test return for O=[N+]([O-])c1ccc(/C=[N+](\[O-])CCO)cc1 ?
Ans: F

Q: What did the test return for Nc1nc(C=O)c(Cc2ccc(Br)cc2)c(=O)[nH]1 ?
Ans: F

Q: What did the test return for CC(=O)Nc1ccc(S(=O)(=O)N(CCO)c2ccccc2)cc1 ?
Ans: F

The measured values listed here are drawn from PubChem BioAssay AID328.
